// data source = paper PMC12892976

- Tested on: Aspergillus flavus
- test.description: checkerboard drug interaction (FICI, MICc);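 note: simplified diagonal checkerboard screen pairing azole antifungals with FPPS inhibitors, FICI calculated under the Loewe additivity model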
- Format: cell-based
- assay.conditions: A. flavus; MIC-MICc fold decrease of ketoconazole; negative = increase
Give measured KET FD (KET:INH) for each item. Keep answers brief.

Short answer for O=P(O)(O)C(O)(Cn1ccnc1)P(=O)(O)O [ZOL, zoledronate] : KET FD (KET:INH) was 1

Entry CCCCCCCCCCCN1CCC[C@H]1C(=O)N[C@@H](CC(=O)OC)C(=O)OC , KET FD (KET:INH) reported as 2

Value of measured KET FD (KET:INH) for the entry CCCCCCCCCCN1CCC[C@H]1C(=O)N[C@H](CC(=O)OC)C(=O)OC : 2

Measured KET FD (KET:INH), CCCCCCCCCCCCN1CCC[C@H]1C(=O)N[C@H](CC(=O)OC)C(=O)OC : 4

Value of measured KET FD (KET:INH) for the entry CCCCCCCCCN1CCC[C@H]1C(=O)N[C@H](CC(=O)O)C(=O)O : 2

I have 6 compounds here; please give me KET FD (KET:INH) for each one.
1. CCCCCCCCCN1CCC[C@H]1C(=O)N[C@H](CC(=O)OC)C(=O)OC
2. CCCCCCCCCCCCN1CCC[C@H]1C(=O)N[C@@H](CC(=O)OC)C(=O)OC
3. CCCCCCCCCCN1CCC[C@H]1C(=O)N[C@@H](CC(=O)OC)C(=O)OC
4. CCCCCCCCCCCN1CCC[C@H]1C(=O)N[C@H](CC(=O)O)C(=O)O
5. CCCCCCCCCN1CCC[C@H]1C(=O)N[C@@H](CC(=O)OC)C(=O)OC
6. CCCCCCCCCN1CCC[C@H]1C(=O)N[C@@H](CC(=O)O)C(=O)O

1: 2; 2: 2; 3: 1; 4: 2; 5: 2; 6: 2

For every record below, what is its KET FD (KET:INH)?
1. CCCCCCCCCCCN1CCC[C@H]1C(=O)N[C@H](CC(=O)OC)C(=O)OC
2. CCCCCCCCCCCCN1CCC[C@H]1C(=O)N[C@H](CC(=O)O)C(=O)O
3. CCCCCCCCCCCN1CCC[C@H]1C(=O)N[C@@H](CC(=O)O)C(=O)O

1: 4; 2: 2; 3: 1
